Assay Procedure: in vitro
Experimental Parameters: human
Observed Property: CC50 at 3 days

| Compound | CC50 at 3 days |
| --- | --- |
| CNC(=O)c1ccc(OC)c(S(=O)(=O)N(Cc2ccccc2)Cc2ccccc2)c1 | 4.87 µM |
| COc1ccc(C)cc1S(=O)(=O)N(CC(=O)N1CCOCC1)Cc1ccccc1 | > 55.4 µM |
| COc1ccc(Cl)cc1S(=O)(=O)N(Cc1ccccc1)C1COC(=O)OC1 | 59.1 µM |

GET /value?item= O=S(=O)(NCc1ccccc1)c1cc(F)ccc1F &field=CC50 at 3 days returns > 64 µM

GET /value?item= COCCN(Cc1ccc(F)cc1)S(=O)(=O)c1cc(C#N)ccc1OC &field=CC50 at 3 days returns > 64 µM

GET /value?item= COc1ccc(Cl)cc1S(=O)(=O)N(Cc1ccccc1)Cc1ccccc1 &field=CC50 at 3 days returns > 64 µM

GET /value?item= CCN(Cc1ccccc1)S(=O)(=O)c1ccccc1Br &field=CC50 at 3 days returns > 64 µM

GET /value?item= COCCN(Cc1ccccc1)S(=O)(=O)c1cc(OC)ccc1OC &field=CC50 at 3 days returns 39.4 µM

GET /value?item= COCC1COc2ccc(F)cc2S(=O)(=O)N1Cc1ccccc1 (stereo not drawn) &field=CC50 at 3 days returns > 64 µM
